Recorded values, source paper PMC10056443.

System: HepG2 cells
Assay: Cytotoxicity assessment in vitro (MTT assay)
Assay type: cell-based
Conditions: human, 24 h, 10 µM
Provide the recorded 3. screening of cytotoxic potential, HepG2 cell line for the entries that follow.

Solved entries (count: 2):
- COMPOUND: "COc1c2c(cc3c1OCO3)[C@]13C=C[C@H](OC)C[C@H]1N(C2)C[C@H]3OC(=O)c1ccc([N+](=O)[O-])cc1Cl [28s, 11-O-(2-Chloro-4-nitrobenzoyl)ambelline]"
  EXPERIMENTAL_VALUE: 58.6
- COMPOUND: "CCC(=O)O[C@@H]1CN2Cc3c(cc4c(c3OC)OCO4)[C@@]13C=C[C@H](OC)C[C@@H]23 [28b, 11-O-Propionylambelline]"
  EXPERIMENTAL_VALUE: 55.25

Would you kindly share the measured 3. screening of cytotoxic potential, HepG2 cell line for COc1c2c(cc3c1OCO3)[C@]13C=C[C@H](OC)C[C@H]1N(C2)C[C@H]3OC(=O)c1ccc(C)cc1 [28g, 11-O-(4-Methylbenzoyl)ambelline] ?
43.46

====

Tested on: hepatic stage of P. berghei
Assay: In vitro activity against P. berghei hepatic stages (luciferase-expressing sporozoites in Huh-7 cells, bioluminescence)
Assay type: cell-based, Plasmodium berghei
Conditions: Plasmodium berghei; hepatic stage, Huh-7 cells, parasite load 48 h post-infection; read-out: IC50 P. berghei
RECORDED_METRIC: IC50 (nM)
Give bare numbers, in nM.

Field: example entries. Status: answers known.
- COMPOUND: "CCCCC(=O)O[C@@H]1CN2Cc3c(cc4c(c3OC)OCO4)[C@@]13C=C[C@H](OC)C[C@@H]23 [28d, 11-O-Pentanoylambelline]"
  IC50 / nM: 4080
- COMPOUND: "COc1c2c(cc3c1OCO3)[C@]13C=C[C@H](OC)C[C@H]1N(C2)C[C@H]3OC(=O)c1ccccc1 [28e, 11-O-Benzoylambelline]"
  IC50 / nM: 726
- COMPOUND: "COc1cccc(C(=O)O[C@@H]2CN3Cc4c(cc5c(c4OC)OCO5)[C@@]24C=C[C@H](OC)C[C@@H]34)c1 [28j, 11-O-(3-Methoxybenzoyl)ambelline]"
  IC50 / nM: 261
- COMPOUND: "COc1c2c(cc3c1OCO3)[C@]13C=C[C@H](OC)C[C@H]1N(C2)C[C@H]3OC(=O)c1ccc(C)cc1 [28g, 11-O-(4-Methylbenzoyl)ambelline]"
  IC50 / nM: 402

Need IC50, item COc1c2c(cc3c1OCO3)[C@]13C=C[C@H](OC)C[C@H]1N(C2)C[C@H]3OC(=O)c1cccc(C)c1 [28f, 11-O-(3-Methylbenzoyl)ambelline]
317

====

Tested on: hepatic stage of P. berghei
Test: In vitro activity against P. berghei hepatic stages (luciferase-expressing sporozoites in Huh-7 cells, bioluminescence)
Assay type: cell-based, Plasmodium berghei
Details: Plasmodium berghei, Huh-7, 48 h; at 1 μM; DMSO = 100; read-out: INFECTION Ø screening
# note: boundary value 50% maps to condition not met; activity at 1 µM below it maps to condition met

I'd appreciate it if you could check whether CCC(=O)OC1CN2Cc3cc4c(cc3C13C=CC(OC)CC23)OCO4 (stereo not drawn) [29a, 11-O-propionylhaemanthamine] has activity at 1 µM smaller than 50%.
condition not met

Same for COc1c2c(cc3c1OCO3)[C@]13C=C[C@H](OC)C[C@H]1N(C2)C[C@H]3OC(=O)c1ccc([N+](=O)[O-])cc1Cl [28s, 11-O-(2-Chloro-4-nitrobenzoyl)ambelline]
condition met

Then COc1cccc(C(=O)OC2CN3Cc4cc5c(cc4C24C=CC(OC)CC34)OCO5)c1 (stereo not drawn) [29f, 11-O-(3-methoxybenzoyl)haemanthamine] ?
condition not met

Entry CCOc1cc(OCC)cc(C(=O)O[C@@H]2CN3Cc4c(cc5c(c4OC)OCO5)[C@@]24C=C[C@H](OC)C[C@@H]34)c1 [28o, 11-O-(3,5-Diethoxybenzoyl)ambelline] please
condition met

Next up: COc1c2c(cc3c1OCO3)[C@]13C=C[C@H](OC)C[C@H]1N(C2)C[C@H]3OC(=O)c1ccc(C)c([N+](=O)[O-])c1 [28r, 11-O-(4-Methyl-3-nitrobenzoyl)ambelline]
condition met

Now this one: COc1c2c(cc3c1OCO3)[C@]13C=C[C@H](OC)C[C@H]1N(C2)C[C@H]3OC(=O)c1ccccc1 [28e, 11-O-Benzoylambelline]
condition met

====

Test: Cytotoxicity assessment in vitro (MTT assay)
Format: cell-based
Conditions: human
RECORDED_METRIC: viability at 24 h, 10 µM (%)
Answers are plain numbers, in %.

Some compounds with known viability at 24 h, 10 µM results, for comparison:
- COMPOUND: "COc1c2c(cc3c1OCO3)[C@]13C=C[C@H](OC)C[C@H]1N(C2)C[C@H]3OC(=O)c1ccc([N+](=O)[O-])cc1Cl [28s, 11-O-(2-Chloro-4-nitrobenzoyl)ambelline]"
  RECORDED_METRIC: "viability at 24 h, 10 µM"
  UNIT_DESCRIPTOR: "%"
  EXPERIMENTAL_VALUE: 54
- COMPOUND: "COc1c2c(cc3c1OCO3)[C@]13C=C[C@H](OC)C[C@H]1N(C2)C[C@H]3OC(=O)c1ccccc1 [28e, 11-O-Benzoylambelline]"
  RECORDED_METRIC: "viability at 24 h, 10 µM"
  UNIT_DESCRIPTOR: "%"
  EXPERIMENTAL_VALUE: 95
- COMPOUND: "COc1c2c(cc3c1OCO3)[C@]13C=C[C@H](OC)C[C@H]1N(C2)C[C@H]3OC(=O)c1ccc(C)cc1 [28g, 11-O-(4-Methylbenzoyl)ambelline]"
  RECORDED_METRIC: "viability at 24 h, 10 µM"
  UNIT_DESCRIPTOR: "%"
  EXPERIMENTAL_VALUE: 50
- COMPOUND: "COc1c2c(cc3c1OCO3)[C@]13C=C[C@H](OC)C[C@H]1[N@](C2)C[C@H]3OC(C)=O [28a, 11-O-Acetylambelline]"
  RECORDED_METRIC: "viability at 24 h, 10 µM"
  UNIT_DESCRIPTOR: "%"
  EXPERIMENTAL_VALUE: 107
- COMPOUND: "COc1c2c(cc3c1OCO3)[C@]13C=C[C@H](OC)C[C@H]1N(C2)C[C@H]3OC(=O)c1cccc([N+](=O)[O-])c1 [28p, 11-O-(3-Nitrobenzoyl)ambelline]"
  RECORDED_METRIC: "viability at 24 h, 10 µM"
  UNIT_DESCRIPTOR: "%"
  EXPERIMENTAL_VALUE: 75

Here are 7 compounds. What values of viability at 24 h, 10 µM were reported for them?
1. COc1ccccc1C(=O)O[C@@H]1CN2Cc3c(cc4c(c3OC)OCO4)[C@@]13C=C[C@H](OC)C[C@@H]23 [28i, 11-O-(2-Methoxybenzoyl)ambelline]
2. COc1c2c(cc3c1OCO3)[C@]13C=C[C@H](OC)C[C@H]1N(C2)C[C@H]3OC(=O)C(C)C [28c, 11-O-Isobutanoylambelline]
3. CCC(=O)O[C@@H]1CN2Cc3c(cc4c(c3OC)OCO4)[C@@]13C=C[C@H](OC)C[C@@H]23 [28b, 11-O-Propionylambelline]
4. COc1c2c(cc3c1OCO3)[C@]13C=C[C@H](OC)C[C@H]1N(C2)C[C@H]3OC(=O)c1ccc(C)c([N+](=O)[O-])c1 [28r, 11-O-(4-Methyl-3-nitrobenzoyl)ambelline]
5. COc1cc(OC)cc(C(=O)O[C@@H]2CN3Cc4c(cc5c(c4OC)OCO5)[C@@]24C=C[C@H](OC)C[C@@H]34)c1 [28m, 11-O-(3,5-Dimethoxybenzoyl)ambelline]
6. CCOc1cc(OCC)cc(C(=O)O[C@@H]2CN3Cc4c(cc5c(c4OC)OCO5)[C@@]24C=C[C@H](OC)C[C@@H]34)c1 [28o, 11-O-(3,5-Diethoxybenzoyl)ambelline]
7. COc1cc(C(=O)O[C@@H]2CN3Cc4c(cc5c(c4OC)OCO5)[C@@]24C=C[C@H](OC)C[C@@H]34)cc(OC)c1OC [28n, 11-O-(3,4,5-Trimethoxybenzoyl)ambelline]

86
95
58
65
87
56
52

Give viability at 24 h, 10 µM for all compounds that follow.
1. COc1c2c(cc3c1OCO3)[C@]13C=C[C@H](OC)C[C@H]1N(C2)C[C@H]3OC(=O)c1ccc([N+](=O)[O-])cc1 [28q, 11-O-(4-Nitrobenzoyl)ambelline]
2. CCCCC(=O)O[C@@H]1CN2Cc3c(cc4c(c3OC)OCO4)[C@@]13C=C[C@H](OC)C[C@@H]23 [28d, 11-O-Pentanoylambelline]
3. COc1c2c(cc3c1OCO3)[C@]13C=C[C@H](OC)C[C@H]1N(C2)C[C@H]3OC(=O)c1ccc(Cl)c([N+](=O)[O-])c1 [28t, 11-O-(4-Chloro-3-nitrobenzoyl)ambelline]
4. COc1ccc(C(=O)O[C@@H]2CN3Cc4c(cc5c(c4OC)OCO5)[C@@]24C=C[C@H](OC)C[C@@H]34)cc1OC [28l, 11-O-(3,4-Dimethoxybenzoyl)ambelline]
5. COc1c2c(cc3c1OCO3)[C@]13C=C[C@H](OC)C[C@H]1N(C2)C[C@H]3OC(=O)c1cccc(C)c1 [28f, 11-O-(3-Methylbenzoyl)ambelline]

53
71
15
99
75
